- target.of.assay: Full length Human HDAC1 (Homo sapiens, UniProt Q13547)
- Construct: Full length Human HDAC1; His (C); FLAG (C); host or cells: baculovirus expression system
- Sequence (Q13547 whole entry): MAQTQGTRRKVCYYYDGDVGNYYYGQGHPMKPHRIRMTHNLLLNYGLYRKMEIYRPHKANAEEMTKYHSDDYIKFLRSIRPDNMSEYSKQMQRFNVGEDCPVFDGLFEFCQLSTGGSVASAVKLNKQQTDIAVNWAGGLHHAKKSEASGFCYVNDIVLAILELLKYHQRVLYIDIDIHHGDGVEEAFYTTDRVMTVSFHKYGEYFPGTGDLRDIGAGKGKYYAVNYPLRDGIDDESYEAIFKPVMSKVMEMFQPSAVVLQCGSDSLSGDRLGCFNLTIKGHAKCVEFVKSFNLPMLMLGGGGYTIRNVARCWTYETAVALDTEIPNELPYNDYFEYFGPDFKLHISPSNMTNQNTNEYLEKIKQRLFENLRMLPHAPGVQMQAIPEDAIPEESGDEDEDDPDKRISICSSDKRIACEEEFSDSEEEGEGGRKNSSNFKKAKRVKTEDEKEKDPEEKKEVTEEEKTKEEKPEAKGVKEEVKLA
- protocol.description: HDAC1 enzymatic assay (deacetylation of FAM-labeled peptide substrate, microfluidic electrophoresis)
- Format: biochemical
- assay.setup: recombinant enzymatic assay, Table 2, class symbols
pIC50: −log10 of the molar value.
assay.endpoint: pIC50

Some solved cases for reference:
Nc1ccc(-c2ccc(F)cc2F)nc1NC(=O)N1CC(C(F)(F)c2ncc(F)cn2)C1 = 6.00 to 6.30
Nc1ccc(-c2ccc(F)cc2F)nc1NC(=O)N1CC(C(F)c2ncccn2)C1 (stereo not shown) = 6.00 to 6.30
Nc1ccc(-c2ccc(F)cc2F)nc1NC(=O)N1CC(Oc2ncccn2)C1 = > 6.30

The following compounds each have a reported value; give each one's pIC50.
1. CC(c1ncccn1)C1CN(C(=O)Nc2nc(-c3ccc(F)cc3F)ccc2N)C1 (stereo not shown)
2. Nc1ccc(-c2ccccc2F)nc1NC(=O)N1CC(C(F)(F)c2ncc(F)cn2)C1
3. Cc1ccc(CC2CN(C(=O)Nc3nc(-c4ccc(F)cc4F)ccc3N)C2)cn1
4. Nc1ccc(-c2ccc(F)cc2F)nc1NC(=O)N1CC(Cc2cccnn2)C1
5. Cc1ncc(CC2CN(C(=O)Nc3nc(-c4ccc(F)cc4F)ccc3N)C2)cn1

Output:
1: 6.00 to 6.30; 2: 6.00 to 6.30; 3: 5.70 to 6.00; 4: 5.70 to 6.00; 5: < 5.70

Provide the reported pIC50 of each entry below, same order.
1. Cc1cnc(CC2CN(C(=O)Nc3nc(-c4ccc(F)cc4F)ccc3N)C2)cn1
2. Cc1nccnc1CC1CN(C(=O)Nc2nc(-c3ccc(F)cc3F)ccc2N)C1

Output:
1. > 6.30
2. 6.00 to 6.30

----------
- target.of.assay: HDAC2 (Homo sapiens)
- Construct: host or cells: SH-SY5Y cells
- protocol.description: HDAC2 Enzymatic Inhibition Assay in SH-SY5Y Cell Lysate with an Exogenous Substrate (HDAC-Glo 2)
- Assay type: cell-based
- assay.setup: SH-SY5Y cells, five hours incubation, Table 3, class symbols
pIC50: −log10 of the molar value.
assay.endpoint: pIC50

Nc1ccc(-c2ccc(F)cc2F)nc1NC(=O)N1CC(Cc2ccncc2)C1 = 5.70 to 6.00
Nc1ccc(-c2ccc(F)cc2F)nc1NC(=O)N1CC(Cc2ccccn2)C1 = 5.70 to 6.00
Cc1ccnn1CC1CN(C(=O)Nc2nc(-c3ccc(F)cc3F)ccc2N)C1 = 5.70 to 6.00
Cc1nnc(CC2CN(C(=O)Nc3nc(-c4ccc(F)cc4F)ccc3N)C2)s1 = 6.00 to 6.30
Nc1ccc(-c2ccc(F)cc2F)nc1NC(=O)N1CC(Cc2cncnc2)C1 = < 5.70
Nc1ccc(-c2ccccc2F)nc1NC(=O)N1CC(C(F)(F)c2ncc(F)cn2)C1 = 6.00 to 6.30

Record pIC50 per entry; entries follow.
1. Cc1cnc(CC2CN(C(=O)Nc3nc(-c4ccc(F)cc4)ccc3N)C2)o1
2. Nc1ccc(-c2ccc(F)cc2F)nc1NC(=O)N1CC(Oc2ncccn2)C1
3. Nc1ccc(-c2ccc(F)cc2)nc1NC(=O)N1CC(C(F)(F)c2ccccn2)C1
4. Cc1nccc(CC2CN(C(=O)Nc3nc(-c4ccc(F)cc4F)ccc3N)C2)n1
5. Nc1ccc(-c2ccc(F)cc2F)nc1NC(=O)N1CC(Cc2cccnn2)C1

Output:
1. 5.70 to 6.00
2. < 5.70
3. < 5.70
4. < 5.70
5. 6.00 to 6.30

----------
- target.of.assay: HDAC2 (Homo sapiens, UniProt Q92769)
- Construct: host or cells: SH-SY5Y cells
- Sequence (Q92769 whole entry): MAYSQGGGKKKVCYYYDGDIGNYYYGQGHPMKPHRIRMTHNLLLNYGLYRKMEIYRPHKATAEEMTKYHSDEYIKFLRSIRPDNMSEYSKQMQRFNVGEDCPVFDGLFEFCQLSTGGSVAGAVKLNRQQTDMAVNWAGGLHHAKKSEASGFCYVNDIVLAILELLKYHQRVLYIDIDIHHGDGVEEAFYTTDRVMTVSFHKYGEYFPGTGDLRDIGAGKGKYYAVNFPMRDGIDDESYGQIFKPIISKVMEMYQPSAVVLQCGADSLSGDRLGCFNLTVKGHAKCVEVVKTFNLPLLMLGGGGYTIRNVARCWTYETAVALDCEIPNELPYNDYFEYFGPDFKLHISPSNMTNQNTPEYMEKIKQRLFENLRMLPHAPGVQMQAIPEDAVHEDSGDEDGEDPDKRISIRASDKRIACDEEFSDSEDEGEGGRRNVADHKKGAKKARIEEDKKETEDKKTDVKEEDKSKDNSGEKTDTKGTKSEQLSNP
- protocol.description: HDAC2 Enzymatic Inhibition Assay in SH-SY5Y Cell Lysate with an Exogenous Substrate (HDAC-Glo 2)
- Assay type: cell-based
- assay.setup: SH-SY5Y cells, five hours incubation, Table 3, class symbols
assay.endpoint: IC50

Nc1ccc(-c2ccc(F)cc2F)nc1NC(=O)N1CC(Cc2ncccn2)C1 = < 500 nM
Cc1cnc(CC2CN(C(=O)Nc3nc(-c4ccc(F)s4)ccc3N)C2)nc1 = 500 to 1000 nM
Nc1ccc(-c2ccc(F)cc2F)nc1NC(=O)N1CC(Oc2cccnc2)C1 = > 2000 nM
COCc1cccc(CC2CN(C(=O)Nc3nc(-c4ccc(F)cc4F)ccc3N)C2)n1 = > 2000 nM
Nc1ccc(-c2ccccc2F)nc1NC(=O)N1CC(C(F)(F)c2ncccn2)C1 = 500 to 1000 nM
Cc1ncc(CC2CN(C(=O)Nc3nc(-c4ccc(F)cc4F)ccc3N)C2)cn1 = 1000 to 2000 nM

Dear reader, for each entry below, please note its IC50.
1. CC(c1ncccn1)C1CN(C(=O)Nc2nc(-c3ccc(F)cc3F)ccc2N)C1 (stereo not shown)
2. Cc1cccc(CC2CN(C(=O)Nc3nc(-c4ccc(F)cc4)ccc3N)C2)n1
3. Nc1ccc(-c2ccc(F)cc2F)nc1NC(=O)N1CC(CCc2ncccn2)C1
4. Cc1cnc(CC2CN(C(=O)Nc3nc(-c4ccc(F)cc4F)ccc3N)C2)cn1
5. Nc1ccc(-c2ccc(F)cc2F)nc1NC(=O)N1CC(CCc2ccccn2)C1

Output:
< 500 nM
> 2000 nM
> 2000 nM
500 to 1000 nM
> 2000 nM

Please give IC50 for each item listed below.
1. Cc1cncn1CC1CN(C(=O)Nc2nc(-c3ccc(F)cc3F)ccc2N)C1
2. Nc1ccc(-c2ccc(F)cc2F)nc1NC(=O)N1CC(Cc2ncc(F)cn2)C1
3. Cn1ccnc1CC1(F)CN(C(=O)Nc2nc(-c3ccc(F)cc3)ccc2N)C1
4. Nc1ccc(-c2ccc(F)cc2)nc1NC(=O)N1CC(Cc2ncc(C(F)F)cn2)C1
5. Nc1ccc(-c2ccc(F)cc2F)nc1NC(=O)N1CC(C(F)c2ncccn2)C1 (stereo not shown)
6. Nc1ccc(-c2ccc(F)cc2F)nc1NC(=O)N1CC(C(F)(F)c2ncc(F)cn2)C1

Output:
["> 2000 nM", "500 to 1000 nM", "1000 to 2000 nM", "1000 to 2000 nM", "500 to 1000 nM", "> 2000 nM"]

Report IC50 for every entry below.
1. Nc1ccc(-c2ccc(F)cc2F)nc1NC(=O)N1CC(Cc2cccnc2)C1
2. Nc1ccc(-c2ccccc2F)nc1NC(=O)N1CC(Cc2ncc(F)cn2)C1
3. Nc1ccc(-c2ccc(F)cc2F)nc1NC(=O)N1CC(Cc2nnc(C(F)(F)F)s2)C1
4. Nc1ccc(-c2ccc(F)cc2)nc1NC(=O)N1CC(Cc2cnc(C(F)(F)F)nc2)C1
5. Nc1ccc(-c2cccs2)nc1NC(=O)N1CC(C(F)(F)c2ncccn2)C1
6. Cc1cc(C)nc(CC2CN(C(=O)Nc3nc(-c4ccc(F)cc4F)ccc3N)C2)n1

Output:
1: 1000 to 2000 nM; 2: 1000 to 2000 nM; 3: > 2000 nM; 4: > 2000 nM; 5: 1000 to 2000 nM; 6: > 2000 nM

----------
- target.of.assay: HDAC2 (Homo sapiens, UniProt Q92769)
- Construct: host or cells: SH-SY5Y cells
- protocol.description: HDAC2 Enzymatic Inhibition Assay in SH-SY5Y Cell Lysate with an Exogenous Substrate (HDAC-Glo 2)
- Format: cell-based
- assay.setup: SH-SY5Y cells, five hours incubation, Table 3, class symbols
- Procedure: HDAC2 Enzymatic Inhibition Assay in SH-SY5Y Cell Lysate with an Exogenous Substrate SH-SY5Y cells (Sigma) were cultured in Eagle's Modified Essential Medium supplemented with 10% fetal bovine serum and pen/strep. Twenty-four hours prior to compound dosing 20 uL of cells were plated in white 384 well plates at a density of 1,500 cells/well. […] Plates were then read with a Spectramax LMax luminometer employing a 0.4 s integration time. […]
pIC50: −log10 of the molar value.
assay.endpoint: pIC50

For the 3 compounds below, give their pIC50 values.
1. Nc1ccc(-c2cccs2)nc1NC(=O)N1CC(Cc2ncc(F)cn2)C1 [Compound 69]
2. Cn1ccnc1CC1CN(C(=O)Nc2nc(-c3ccc(F)cc3)ccc2N)C1 [Compound 71]
3. Nc1ccc(-c2ccc(F)cc2F)nc1NC(=O)N1CC(Cc2ccn3cncc3c2)C1 [Compound 8]

Output:
1: 5.70 to 6.00; 2: 6.00 to 6.30; 3: < 5.70

// batch mode: one pIC50 value per listed entry
1. Cc1ccc(CC2CN(C(=O)Nc3nc(-c4ccc(F)cc4F)ccc3N)C2)nn1 [Compound 24]
2. Nc1ccc(-c2ccc(F)cc2F)nc1NC(=O)N1CC(Cc2ccc(C(F)(F)F)cn2)C1 [Compound 49]
3. COCc1cc(CC2CN(C(=O)Nc3nc(-c4ccc(F)cc4F)ccc3N)C2)ccn1 [Compound 18]
4. Nc1ccc(-c2ccc(F)s2)nc1NC(=O)N1CC(Cc2ncccn2)C1 [Compound 66]
5. CC(F)(c1ncccn1)C1CN(C(=O)Nc2nc(-c3ccc(F)cc3F)ccc2N)C1 (centres unmarked) [Compound 60]
6. Nc1ccc(-c2ccc(F)cc2F)nc1NC(=O)N1CC(Cc2ccncn2)C1 [Compound 32]
7. Nc1ccc(-c2ccc(F)cc2)nc1NC(=O)N1CC(C(F)(F)c2ncccn2)C1 [Compound 36]
8. Cc1cc(CC2CN(C(=O)Nc3nc(-c4ccc(F)cc4F)ccc3N)C2)ncn1 [Compound 19]

Output:
> 6.30
< 5.70
< 5.70
5.70 to 6.00
< 5.70
5.70 to 6.00
5.70 to 6.00
6.00 to 6.30
